// pKd lookup, one value per entry
- Study System: T1, Rb^P M704V (human, UniProt P06400 380-788, M704V)
- T1 construct: also called variant 66
- T1 sequence (looked up): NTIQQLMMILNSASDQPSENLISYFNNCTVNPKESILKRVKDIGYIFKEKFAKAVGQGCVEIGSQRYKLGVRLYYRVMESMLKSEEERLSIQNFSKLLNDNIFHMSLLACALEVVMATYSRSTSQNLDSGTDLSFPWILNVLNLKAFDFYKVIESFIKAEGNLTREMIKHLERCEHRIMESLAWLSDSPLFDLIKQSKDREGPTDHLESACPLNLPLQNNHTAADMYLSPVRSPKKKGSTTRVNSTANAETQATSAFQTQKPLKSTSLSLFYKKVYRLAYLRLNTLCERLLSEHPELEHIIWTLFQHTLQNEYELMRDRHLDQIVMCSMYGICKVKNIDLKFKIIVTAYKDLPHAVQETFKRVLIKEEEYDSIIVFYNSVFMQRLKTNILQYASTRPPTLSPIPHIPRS
- Procedure Details: fluorescence polarisation; 37 °C, after the 25 °C reading ramped over 7 min to 37 °C and 2 min incubation; unlabeled Rb^P against 1.5 nM TMR-E2F1^TD or 7.5 nM TMR-E7^LxCxE; 25 mM Tris pH 8.0, 200 mM NaCl, 1 mM DTT, 0.1% Tween-20; apparent Kd
- Settings: both partners purified
No end group written: not given here. TMR = tetramethyl rhodamine dye
Convention used: pKd is expressed as -log10 of the molar concentration.

Binder	Measured Number
DLYCYEQLN (also: TMR label, position not given here, source: synthetic peptide, bought: GenScript) [TMR-E7^LxCxE, LxCxE peptide of the E7 oncoprotein from HPV]	7.29

Moving on to the next binder.
# binder {TMR}-GEGIRDLFDCDFGDLTPLD (also called E2F^TD; source: synthetic peptide, bought: GenScript) [TMR-E2F1^TD, peptide of the E2F1 transactivation domain] ; its pKd = 6.89
